GLUCOSE values for the compounds below.
# Species: Rattus norvegicus
# Run Description: DrugMatrix - Regimen: Daily Repeat
# Type: toxicity, organism-based, Sprague-Dawley
# Design: regimen Daily Repeat, gender Male, age 6-8 weeks
# Condition Notes: in vivo, po, 10 mg/kg, 120 h, tissue Plasma, route oral GAVAGE, dose level Low, time 5 day, vehicle .5 % CMC
Outcome Measure: GLUCOSE

O=C1CN=C(c2ccccc2)c2cc([N+](=O)[O-])ccc2N1	147.33 mg/dL
NS(=O)(=O)c1cc2c(cc1Cl)NCNS2(=O)=O [HYDROCHLOROTHIAZIDE]	162.33 mg/dL
COc1c(C)c2c(c(O)c1C/C=C(\C)CCC(=O)OCCN1CCOCC1)C(=O)OC2 [MYCOPHENOLATE MOFETIL]	141 mg/dL
CC(=O)O[C@]1(C(C)=O)CC[C@H]2[C@@H]3C=C(Cl)C4=CC(=O)CC[C@]4(C)[C@H]3CC[C@@]21C [CHLORMADINONE ACETATE]	156.67 mg/dL
